Test system: HOP-92
Experiment: NCI tumour cell line growth inhibition, 48 h
Activity calls are given as the source filed them. Rule as the data show it: active = GI50 up to about 1.1 µM and inactive = higher.
Recorded GI50 by entry

Need GI50, item C=C1C(=O)CC2C(=O)C(C)(O)CC/C=C(\C)C(=O)CC12 (stereo not given) 23.6 µM (inactive)

Need GI50, item "O=C(O)CSc1ccn(Cc2ccccc2)c1" > 100 µM (inactive)

Need GI50, item CCO[C@@H]1C2C=CC(C2)[C@H]1[N+](=O)[O-] (stereo not given in full) > 100 µM (inactive)

Need GI50, item CC(=O)OCC1OC(n2cnc(C(N)=S)c2N)C(OC(C)=O)C1OC(C)=O (stereo not given) > 100 µM (inactive)

# input for lookup
Need GI50, item O=[N+]([O-])c1ccc2nc(/C(=N/Nc3ccccc3)C(O)c3ccc(C(O)/C(=N\Nc4ccccc4)c4nc5ccc([N+](=O)[O-])cc5nc4O)cc3)cnc2c1 (stereo not given) > 100 µM (inactive)

---

Recorded GI50 by entry
System: Malme-3M
Experiment: NCI tumour cell line growth inhibition, 48 h
Activity calls are given as the source filed them. No stated cut-off is given here; in the data, active = GI50 up to about 1.1 µM and inactive = higher.

Need GI50, item "COc1ccc2c(c1)[C@@]13CCCC[C@H]1[C@@H](C2)N(C)CC3=O" 18.5 µM (inactive)

Need GI50, item "O=C(c1ccccc1)C1(Br)S(=O)(=O)OCCOS1(=O)=O" > 100 µM (inactive)

Need GI50, item "Cn1nc2ccc([N+](=O)[O-])cc2[n+]1[O-]" > 100 µM (inactive)

Need GI50, item CSc1ncnc2c1ncn2CC(=O)C1CCC2C3CCC4=CC(=O)CCC4(C)C3CCC12C (stereo unspecified) 7.16 µM (inactive)

---

Recorded GI50 by entry
System: TK-10
Assay: NCI tumour cell line growth inhibition, 48 h
Activity calls are given as the source filed them. Rule as the data show it: active = GI50 up to about 1.1 µM and inactive = higher.

Guide cases for GI50, answers given:
Need GI50, item Cc1cc2nc3c(C(OC4OC(CO)C(O)C(O)C4O)C(O)CO)nn(-c4ccc(F)cc4)c3nc2cc1C (stereo not given) > 100 µM (inactive)

Need GI50, item CC1CC[C@]2(C(=O)O)CCC3(C)C(=CCC4[C@@]5(C)CC[C@H](OS(=O)(=O)c6ccccc6)C(C)(C)C5CC[C@]43C)[C@@H]2[C@H]1C (stereo not given in full) > 100 µM (inactive)

Need GI50, item "CC1(C)Cc2nnsc2C2=C1C(=O)CCS2" > 100 µM (inactive)

Need GI50, item COC(=O)C(Cc1ccccc1)NC(=O)C(CCC(=O)OCc1ccccc1)NC(=O)OC(C)(C)C (stereo not given) > 100 µM (inactive)

# input for lookup
Need GI50, item "Nc1nc(N)c2cc(Sc3ccc4ccccc4c3)ccc2n1" 3.1 µM (inactive)

---

Tested on: SN12C
Test: NCI tumour cell line growth inhibition, 48 h
Active and inactive are the calls of the source. No stated cut-off is given here; in the data, active = GI50 up to about 1.1 µM and inactive = higher.
API: response.call in y (active), n (inactive)

Here are 8 molecules together with their reported answers.
What is the recorded call for this molecule in the test? "CN(C)C(=S)N/N=C(\C(=N/NC(=S)N(C)C)c1ccccn1)c1ccccn1" n

What is the recorded call for this molecule in the test? "CCN1C(=O)C(=C/C=C/c2ccc(OC)cc2)C(=O)N(CC)C1=S" n

What is the recorded call for this molecule in the test? "Clc1ccc(Nc2ncco2)cc1Cl" n

What is the recorded call for this molecule in the test? "C[N+](C)(C)CC(=O)N/N=C/c1ccncc1" n

What is the recorded call for this molecule in the test? COc1ccc(CC(C)N)cc1 (configuration not stated) n

What is the recorded call for this molecule in the test? "O=C(CCc1nnc(S)[nH]1)Nc1ccccc1Cl" n

What is the recorded call for this molecule in the test? "COc1nc(C(Cl)(Cl)Cl)c(Cl)c(O)c1Cl" n

What is the recorded call for this molecule in the test? "O=C(CCCl)NN=C1NCCCCN1" n

Next molecule, please.
What is the recorded call for this molecule in the test? "O=C(CSc1nnc(-c2ccc(/N=C\c3ccc(Cl)cc3)cc2)o1)Nc1ccccc1[N+](=O)[O-]" n
